From: paper PMC12892976

# System: Fusarium oxysporum
# protocol text: MIC broth microdilution (CLSI)
# Format: cell-based
# stated conditions: Fusarium oxysporum 07-200-3012

molecule: Nc1nc(=O)[nH]cc1F
MIC / MEC: >64 µg/mL

molecule: O=P(O)(O)C(O)(Cn1ccnc1)P(=O)(O)O [ZOL, zoledronate]
MIC / MEC: >256 µg/mL

molecule: CCC(C)n1ncn(-c2ccc(N3CCN(c4ccc(OCC5COC(Cn6cncn6)(c6ccc(Cl)cc6Cl)O5)cc4)CC3)cc2)c1=O (stereo not drawn)
MIC / MEC: 4 µg/mL

---

# Test system: Trichophyton rubrum
# protocol text: checkerboard drug interaction (FICI, MICc);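 also: simplified diagonal checkerboard screen pairing azole antifungals with FPPS inhibitors, FICI calculated under the Loewe additivity model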
# Assay type: cell-based
# stated conditions: T. rubrum; MIC-MICc fold decrease of the inhibitor, with fluconazole
quantity: INH FD (FLC:INH)

molecule: CCCCCCCCCCCN1CCC[C@H]1C(=O)N[C@H](CC(=O)OC)C(=O)OC
inequality symbol: =
meas value: -4

molecule: CCCCCCCCCCCCN1CCC[C@H]1C(=O)N[C@H](CC(=O)OC)C(=O)OC
inequality symbol: =
meas value: -4

molecule: CCCCCCCCCCCCN1CCC[C@H]1C(=O)N[C@@H](CC(=O)OC)C(=O)OC
inequality symbol: =
meas value: 1

molecule: O=P(O)(O)C(O)(Cn1ccnc1)P(=O)(O)O [ZOL, zoledronate]
inequality symbol: =
meas value: 4

molecule: CCCCCCCCCCN1CCC[C@H]1C(=O)N[C@H](CC(=O)OC)C(=O)OC
inequality symbol: <
meas value: -4

molecule: CCCCCCCCCN1CCC[C@H]1C(=O)N[C@@H](CC(=O)O)C(=O)O
inequality symbol: =
meas value: 1

molecule: CCCCCCCCCN1CCC[C@H]1C(=O)N[C@H](CC(=O)O)C(=O)O
inequality symbol: =
meas value: 1

molecule: CCCCCCCCCN1CCC[C@H]1C(=O)N[C@H](CC(=O)OC)C(=O)OC
inequality symbol: =
meas value: 1

molecule: CCCCCCCCCCCCN1CCC[C@H]1C(=O)N[C@H](CC(=O)O)C(=O)O
inequality symbol: =
meas value: -2

molecule: CCCCCCCCCCCN1CCC[C@H]1C(=O)N[C@@H](CC(=O)O)C(=O)O
inequality symbol: =
meas value: 1

molecule: CCCCCCCCCCCN1CCC[C@H]1C(=O)N[C@H](CC(=O)O)C(=O)O
inequality symbol: =
meas value: 1

molecule: CCCCCCCCCCN1CCC[C@H]1C(=O)N[C@@H](CC(=O)OC)C(=O)OC
inequality symbol: <
meas value: -4

molecule: CCCCCCCCCN1CCC[C@H]1C(=O)N[C@@H](CC(=O)OC)C(=O)OC
inequality symbol: =
meas value: -2

molecule: CCCCCCCCCCCN1CCC[C@H]1C(=O)N[C@@H](CC(=O)OC)C(=O)OC
inequality symbol: =
meas value: -2

---

# Test system: Trichophyton tonsurans
# protocol text: MIC broth microdilution (CLSI)
# stated conditions: Trichophyton tonsurans R-168

compound: CC(=O)N1CCN(c2ccc(OCC3COC(Cn4ccnc4)(c4ccc(Cl)cc4Cl)O3)cc2)CC1 (centres unmarked)
MIC / MEC [µg/mL]: 4
--
compound: CC[C@H](C)C[C@H](C)CCCCCCCCC(=O)N[C@H]1C[C@@H](O)[C@@H](NCCN)NC(=O)[C@@H]2[C@@H](O)CCN2C(=O)[C@H]([C@H](O)CCN)NC(=O)[C@H]([C@H](O)[C@@H](O)c2ccc(O)cc2)NC(=O)[C@@H]2C[C@@H](O)CN2C(=O)[C@H]([C@@H](C)O)NC1=O
MIC / MEC [µg/mL]: 0.5
--
compound: CCC(C)n1ncn(-c2ccc(N3CCN(c4ccc(OCC5COC(Cn6cncn6)(c6ccc(Cl)cc6Cl)O5)cc4)CC3)cc2)c1=O (centres unmarked)
MIC / MEC [µg/mL]: 1
--
compound: CCCCCCCCCCn1cc[n+](CC(O)(P(=O)(O)O)P(=O)(O)O)c1 [10-ZOL, Decyl-zoledronate]
MIC / MEC [µg/mL]: 1
--
compound: C[C@@H]1[C@H](O)[C@@H](C)/C=C/C=C/C=C/C=C/C=C/C=C/C=C/[C@H](O[C@@H]2O[C@H](C)[C@@H](O)[C@H](N)[C@@H]2O)C[C@@H]2O[C@](O)(C[C@@H](O)C[C@@H](O)[C@H](O)CC[C@@H](O)C[C@@H](O)CC(=O)O[C@H]1C)C[C@H](O)[C@H]2C(=O)O
MIC / MEC [µg/mL]: 0.13
--
compound: O=P(O)(O)C(O)(Cn1ccnc1)P(=O)(O)O [ZOL, zoledronate]
MIC / MEC [µg/mL]: 128
--
compound: C[C@@H](c1ncncc1F)[C@](O)(Cn1cncn1)c1ccc(F)cc1F
MIC / MEC [µg/mL]: 0.13
--
compound: Nc1nc(=O)[nH]cc1F
MIC / MEC [µg/mL]: 64

---

Each entry below carries its reported antifungal MICc.
# System: Rhizopus oryzae
# protocol text: checkerboard drug interaction (FICI, MICc)
# Format: cell-based
# stated conditions: in combination with ZOL

compound: Nc1nc(=O)[nH]cc1F [5FC, 5-flucytosine]
antifungal MICc: 256
--
compound: CC[C@H](C)C[C@H](C)CCCCCCCCC(=O)N[C@H]1C[C@@H](O)[C@@H](NCCN)NC(=O)[C@@H]2[C@@H](O)CCN2C(=O)[C@H]([C@H](O)CCN)NC(=O)[C@H]([C@H](O)[C@@H](O)c2ccc(O)cc2)NC(=O)[C@@H]2C[C@@H](O)CN2C(=O)[C@H]([C@@H](C)O)NC1=O [CAS, caspofungin]
antifungal MICc: 4
--
compound: CC(=O)N1CCN(c2ccc(OCC3COC(Cn4ccnc4)(c4ccc(Cl)cc4Cl)O3)cc2)CC1 (stereo not shown) [KET, ketoconazole]
antifungal MICc: 16
--
compound: C[C@@H](c1ncncc1F)[C@](O)(Cn1cncn1)c1ccc(F)cc1F [VOR]
antifungal MICc: 8

---

# System: HEK-293T cells
# protocol text: MTT reduction cytotoxicity assay
# Format: cell-based
# stated conditions: Homo sapiens, HEK-293T, 72 h, HEK-293T cells, MTT, 72 h; read-out: IC50

sample smiles: CCCCCCCCCCCCN1CCC[C@H]1C(=O)N[C@H](CC(=O)O)C(=O)O
unit symbol: µg/mL
IC50: 168

sample smiles: CCCCCCCCCCCCN1CCC[C@H]1C(=O)N[C@H](CC(=O)OC)C(=O)OC
unit symbol: µg/mL
IC50: 0.161

sample smiles: CCCCCCCCCN1CCC[C@H]1C(=O)N[C@H](CC(=O)OC)C(=O)OC
unit symbol: µg/mL
IC50: 10.4

---

# Tested on: Cryptococcus neoformans
# protocol text: checkerboard drug interaction (FICI, MICc)
# Format: cell-based
# stated conditions: in combination with ZOL
Classification field: enter True for antifungal MICc values not below 1, False for values below it.

compound: CCC(C)n1ncn(-c2ccc(N3CCN(c4ccc(OCC5COC(Cn6cncn6)(c6ccc(Cl)cc6Cl)O5)cc4)CC3)cc2)c1=O (stereo not shown) [ITR, itraconazole]
target entity: Cryptococcus neoformans
class assignment: False
//
compound: C[C@@H]1[C@H](O)[C@@H](C)/C=C/C=C/C=C/C=C/C=C/C=C/C=C/[C@H](O[C@@H]2O[C@H](C)[C@@H](O)[C@H](N)[C@@H]2O)C[C@@H]2O[C@](O)(C[C@@H](O)C[C@@H](O)[C@H](O)CC[C@@H](O)C[C@@H](O)CC(=O)O[C@H]1C)C[C@H](O)[C@H]2C(=O)O [AMB, amphotericin B]
target entity: Cryptococcus neoformans
class assignment: False
//
compound: C[C@@H](c1ncncc1F)[C@](O)(Cn1cncn1)c1ccc(F)cc1F [VOR]
target entity: Cryptococcus neoformans
class assignment: False
//
compound: CC[C@H](C)C[C@H](C)CCCCCCCCC(=O)N[C@H]1C[C@@H](O)[C@@H](NCCN)NC(=O)[C@@H]2[C@@H](O)CCN2C(=O)[C@H]([C@H](O)CCN)NC(=O)[C@H]([C@H](O)[C@@H](O)c2ccc(O)cc2)NC(=O)[C@@H]2C[C@@H](O)CN2C(=O)[C@H]([C@@H](C)O)NC1=O [CAS, caspofungin]
target entity: Cryptococcus neoformans
class assignment: True
//
compound: OC(Cn1cncn1)(Cn1cncn1)c1ccc(F)cc1F [FLC, fluconazole]
target entity: Cryptococcus neoformans
class assignment: True
//
compound: CC(=O)N1CCN(c2ccc(OCC3COC(Cn4ccnc4)(c4ccc(Cl)cc4Cl)O3)cc2)CC1 (stereo not shown) [KET, ketoconazole]
target entity: Cryptococcus neoformans
class assignment: False

---

# System: Candida albicans
# protocol text: checkerboard drug interaction (FICI, MICc)
# Assay type: cell-based
# stated conditions: C. albicans; FLC:INH combination

compound: O=P(O)(O)C(O)(Cn1ccnc1)P(=O)(O)O [ZOL, zoledronate]
target entity: Candida albicans
inequality symbol: =
FICI: 0.53
//
compound: CCCCCCCCCCCN1CCC[C@H]1C(=O)N[C@H](CC(=O)O)C(=O)O
target entity: Candida albicans
inequality symbol: ≥
FICI: 4
//
compound: CCCCCCCCCN1CCC[C@H]1C(=O)N[C@H](CC(=O)O)C(=O)O
target entity: Candida albicans
inequality symbol: ≥
FICI: 4
//
compound: CCCCCCCCCCN1CCC[C@H]1C(=O)N[C@H](CC(=O)OC)C(=O)OC
target entity: Candida albicans
inequality symbol: =
FICI: 1.5
//
compound: CCCCCCCCCCCCN1CCC[C@H]1C(=O)N[C@H](CC(=O)OC)C(=O)OC
target entity: Candida albicans
inequality symbol: =
FICI: 1.06
